Assay: Clearance in monkey
Assay type: ADME, organism-based, Macaca mulatta
Conditions: rhesus monkey, in vivo
Numbered stars: 1 amine (or outer) side, 2 acyl side, 3 side chain; on linkers, the order of the positions; unused ones are H or OH. Square brackets hold non-standard residues; d marks the D form. Peptide text beside a SMILES is read from it. * marks the point of attachment. Pro(3R,4S-CMe2) = CC1(C)[C@@H]2[C@@H](C(=O)O)NC[C@@H]21; X1 = O=C(C(=O)[*:2])C(CC1CC1)N[*:1]; Phg = N[C@H](C(=O)O)c1ccccc1; Tle = CC(C)(C)[C@H](N)C(=O)O; Boc = CC(C)(C)OC(=O)*
PROPERTY: clearance
Report as: number unit

Form field clearance, entry CN(C)C(=O)[C@@H](NC(=O)CNC(=O)C(=O)C(CC1CC1)NC(=O)[C@@H]1[C@@H]2[C@H](CN1C(=O)[C@@H](NC(=O)OC(C)(C)C)C(C)(C)C)C2(C)C)c1ccccc1 (stereo partly drawn) (Boc-[Tle][Pro(3R,4S-CMe2)][X1]G[Phg]-NMe2) : 6.9 mL/min/kg
